Just for reference, patent USRE49099 is where these values come from.

Provide the recorded pKd for the entries that follow.
SYSTEM: T1, human activated protein C (human, UniProt P04070 43-197; P04070 212-461)
T1 construct: also called human aPC; human APC
ASSAY OVERVIEW: SPR (Biacore), 1:1 binding model
Answers are plain numbers, as −log10 of the molar value.

Some entries whose results are on file:
1. Hu1573-11 (antibody, V domains shown, Humanized IgG, human gamma 1 / kappa constant regions by vectors pCP-hCg1 and pCP-hck; also called H1573VH.1D + H1573Vk.2B) VH: EVQLVESGGGLVQPGGSLRLSCAASGFTFSNYYLNWVRQAPGKGLEWVGDIRLKSNNYEKHYAESVKGRFTISRDDSKSSLYLQMNSLKTEDTAVYYCIREGDYFDYWGQGTTVTVSS VL: DIVMTQTPLSLSVTPGQPASISCRASESVDSFGATFMHWYLQKPGQPPQLLIYLASNLESGVPDRFSGSGSRTDFTLKISRVEAEDVGVYYCQQNNEDPYTFGQGTKLEIKR	8.19
2. Hu1573-6 (antibody, V domains shown, Humanized IgG, human gamma 1 / kappa constant regions by vectors pCP-hCg1 and pCP-hck; also called H1573VH.1C + H1573Vk.2) VH: EVQLVESGGGLVQPGGSLRLSCAASGFTFSNYYLNWVRQAPGKGLEWVADIRLKSNNYEKHYAESVKGRFTISRDDSKNSLYLQMNSLKTEDTAVYYCIREGDYFDYWGQGTTVTVSS VL: DIVMTQTPLSLSVTPGQPASISCRASESVDSFGATFMHWYLQKPGQPPQLLIYLASNLESGVPDRFSGSGSGTDFTLKISRVEAEDVGVYYCQQNNEDPYTFGQGTKLEIKR	8.23
3. Hu1573-2 (antibody, V domains shown, Humanized IgG, human gamma 1 / kappa constant regions by vectors pCP-hCg1 and pCP-hck; also called H1573VH.1A + H1573Vk.2C) VH: EVQLVESGGGLVQPGGSLRLSCAASGFTFSNYYLNWVRQAPGKGLEWVGDIRLKSNNYEKHYAESVKGRFTISRDDSKNSLYLQMNSLKTEDTAVYYCIREGDYFDYWGQGTTVTVSS VL: DIVLTQTPLSLSVTPGQPASISCRASESVDSFGATFMHWYLQKPGQPPQLLIYLASNLESGVPDRFSGSGSRTDFTLKISRVEAEDVGVYYCQQNNEDPYTFGQGTKLEIKR	8.34
4. Hu1573-8 (antibody, V domains shown, Humanized IgG, human gamma 1 / kappa constant regions by vectors pCP-hCg1 and pCP-hck; also called H1573VH.1C + H1573Vk.2B) VH: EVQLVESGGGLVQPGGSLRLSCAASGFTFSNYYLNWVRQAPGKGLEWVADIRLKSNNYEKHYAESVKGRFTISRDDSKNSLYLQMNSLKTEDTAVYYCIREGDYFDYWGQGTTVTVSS VL: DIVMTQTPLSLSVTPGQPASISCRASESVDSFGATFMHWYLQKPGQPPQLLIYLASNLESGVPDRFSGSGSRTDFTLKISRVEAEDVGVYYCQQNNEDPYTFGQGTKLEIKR	8.39

Q: Suppose we examine the binder Hu1573-3 (antibody, V domains shown, Humanized IgG, human gamma 1 / kappa constant regions by vectors pCP-hCg1 and pCP-hck; also called H1573VH.1B + H1573Vk.2) VH: EVQLVESGGGLVQPGGSLRLSCAASGFTFSNYYLNWVRQAPGKGLEWVGDIRLKSNNYEKHYAESVKGRFTISRDDSKNSVYLQMNSLKTEDTAVYYCIREGDYFDYWGQGTTVTVSS VL: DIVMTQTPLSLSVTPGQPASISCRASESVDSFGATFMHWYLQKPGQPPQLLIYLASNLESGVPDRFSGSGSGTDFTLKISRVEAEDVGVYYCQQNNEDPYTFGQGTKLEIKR ; what pKd value has been reported?
Ans: 8.24
